target: Elastase (Sus scrofa, UniProt P00772); construct: purchased Sigma-Aldrich; assay: Elastase inhibition, fluorogenic substrate assay (MeOSuc-Ala-Ala-Pro-Val-AMC); format: biochemical, Sus domesticus; conditions: Elastase; inhibitor concentration 111.111 nM; 40 min pre-incubation
Sequence (P00772 27-266): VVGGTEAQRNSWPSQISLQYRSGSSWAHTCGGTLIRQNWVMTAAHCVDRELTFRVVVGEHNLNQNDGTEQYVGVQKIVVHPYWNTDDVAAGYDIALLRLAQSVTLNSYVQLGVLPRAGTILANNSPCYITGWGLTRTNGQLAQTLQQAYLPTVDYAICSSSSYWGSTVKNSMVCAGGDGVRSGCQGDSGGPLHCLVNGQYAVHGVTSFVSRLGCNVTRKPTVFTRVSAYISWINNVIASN
testReadout: Mean (RFU/s)
Numeric answer only, unit RFU/s assumed.

Here are 2 compounds together with their reported answers.
CCCC(=O)N1CCCC1C(=O)NC(C(=O)NC1C(=O)NC(CC(C)C)C(=O)NC2CCC(O)N(C2=O)C(Cc2ccccc2)C(=O)N(C)C(Cc2ccc(O)cc2)C(=O)NC(C(C)C)C(=O)OC1C)C(C)OC(=O)C1CCCN1C(=O)CCC (stereo not drawn) [Rivulariapeptolide 1185, rivulariapeptolide 1185]
0.07933
CC=C1NC(=O)[C@@H](NC(=O)[C@@H](NC(=O)[C@@H]2CCCN2C(=O)CCC)[C@@H](C)O)[C@@H](C)OC(=O)[C@H](C(C)C)NC(=O)[C@H](Cc2ccc(O)cc2)N(C)C(=O)[C@H](Cc2ccccc2)N2C(=O)[C@H](CC[C@H]2O)NC1=O [Rivulariapeptolide 988, rivulariapeptolide 988]
0.065

Next compound, please.
What reported Mean (RFU/s) corresponds to CC=C1NC(=O)[C@@H](NC(=O)[C@@H](NC(=O)[C@@H]2CCCN2C(=O)CCC)[C@@H](C)OC(=O)C2CCCN2C(=O)CCC)[C@@H](C)OC(=O)[C@H](C(C)C)NC(=O)[C@H](Cc2ccc(O)cc2)N(C)C(=O)[C@H](Cc2ccccc2)N2C(=O)[C@H](CC[C@H]2O)NC1=O (stereo partly drawn) [Rivulariapeptolide 1155, rivulariapeptolide 1155] on Elastase (Sus scrofa, UniProt P00772)?
0
